Where do these numbers come from? They come from the supplement of paper PMC10307832.

Listed next: entries and their corresponding relative viability.
Tested on: PC-14
Assay: relative viability (nuclei count vs DMSO), 5 days (fraction); higher = more cells survive
Conditions: first compound 0.02 µM
Respond with the number and no other words.

Here are 4 compounds together with their reported answers.
Tell us which relative viability value is on record for CN1CCN(CCOc2cc(OC3CCOCC3)c3c(Nc4c(Cl)ccc5c4OCO5)ncnc3c2)CC1 [Saracatinib] + CS(=O)(=O)N1CCN(Cc2cc3nc(-c4cccc5[nH]ncc45)nc(N4CCOCC4)c3s2)CC1 [Pictilisib] (partner 1 µM)
0.593

Tell us which relative viability value is on record for CN1CCN(CCOc2cc(OC3CCOCC3)c3c(Nc4c(Cl)ccc5c4OCO5)ncnc3c2)CC1 [Saracatinib] + CC(C)C[C@H](NC(=O)[C@H](Cc1ccccc1)NC(=O)c1cnccn1)B(O)O [Bortezomib] (partner 0.002 µM)
0.941

Tell us which relative viability value is on record for CCNC(=O)c1noc(-c2cc(C(C)C)c(O)cc2O)c1-c1ccc(CN2CCOCC2)cc1 [Luminespib] + Cc1cc(Nc2cc(N3CCN(C)CC3)nc(Sc3ccc(NC(=O)C4CC4)cc3)n2)n[nH]1 [Tozasertib] (partner 0.1 µM)
0.326

Tell us which relative viability value is on record for CCNC(=O)c1noc(-c2cc(C(C)C)c(O)cc2O)c1-c1ccc(CN2CCOCC2)cc1 [Luminespib] + CC(=O)c1c(C)c2cnc(Nc3ccc(N4CCNCC4)cn3)nc2n(C2CCCC2)c1=O [Palbociclib] (partner 0.5 µM)
0.315

***
Tell us which relative viability value is on record for CCNC(=O)c1noc(-c2cc(C(C)C)c(O)cc2O)c1-c1ccc(CN2CCOCC2)cc1 [Luminespib] + Cc1nc(Nc2ncc(C(=O)Nc3c(C)cccc3Cl)s2)cc(N2CCN(CCO)CC2)n1 [Dasatinib] (partner 0.075 µM)
0.0443

* * *

Test system: RERF-LC-KJ
Assay: relative viability (nuclei count vs DMSO), 5 days (fraction); higher = more cells survive
Details: first compound 0.02 µM
Listed next: entries and their corresponding relative viability.
Respond with the number and no other words.

// output relative viability; input CCNC(=O)c1noc(-c2cc(C(C)C)c(O)cc2O)c1-c1ccc(CN2CCOCC2)cc1 [Luminespib] + C[C@@H](Oc1cc(-c2cnn(C3CCNCC3)c2)cnc1N)c1c(Cl)ccc(F)c1Cl [Crizotinib] (partner 1 µM) ; system RERF-LC-KJ
0.877

// output relative viability; input CN1CCN(CCOc2cc(OC3CCOCC3)c3c(Nc4c(Cl)ccc5c4OCO5)ncnc3c2)CC1 [Saracatinib] + COc1cc2c(Oc3ccc(NC(=O)C4(C(=O)Nc5ccc(F)cc5)CC4)cc3F)ccnc2cc1OCCCN1CCOCC1 [Foretinib] (partner 0.25 µM) ; system RERF-LC-KJ
0.895

***
// output relative viability; input CCNC(=O)c1noc(-c2cc(C(C)C)c(O)cc2O)c1-c1ccc(CN2CCOCC2)cc1 [Luminespib] + NC(=O)Nc1cc(-c2cccc(F)c2)sc1C(=O)N[C@H]1CCCNC1 [AZD7762] (partner 0.2 µM) ; system RERF-LC-KJ
0.683

// output relative viability; input CN1CCN(CCOc2cc(OC3CCOCC3)c3c(Nc4c(Cl)ccc5c4OCO5)ncnc3c2)CC1 [Saracatinib] + Nc1ncn([C@H]2C[C@H](O)[C@@H](CO)O2)c(=O)n1 [Decitabine] (partner 2 µM) ; system RERF-LC-KJ
0.688

* * *

System: NCI-H2126
Experiment: relative viability (nuclei count vs DMSO), 5 days (fraction); higher = more cells survive
Conditions: first compound 0.2 µM
Listed next: entries and their corresponding relative viability.
Respond with the number and no other words.

Tell us which relative viability value is on record for CN1CCN(CCOc2cc(OC3CCOCC3)c3c(Nc4c(Cl)ccc5c4OCO5)ncnc3c2)CC1 [Saracatinib] + CC(=O)Nc1cccc(-n2c(=O)n(C3CC3)c(=O)c3c(Nc4ccc(I)cc4F)n(C)c(=O)c(C)c32)c1 [Trametinib] (partner 0.02 µM)
0.509

Tell us which relative viability value is on record for Cc1csc(=NC2CCCCC2)n1/N=C/c1ccc(O)c(O)c1O [MIM1] + CCNC(=O)c1noc(-c2cc(C(C)C)c(O)cc2O)c1-c1ccc(CN2CCOCC2)cc1 [Luminespib] (partner 0.01 µM)
0.891

Tell us which relative viability value is on record for CCNC(=O)c1noc(-c2cc(C(C)C)c(O)cc2O)c1-c1ccc(CN2CCOCC2)cc1 [Luminespib] + Cc1nc(NC(=O)N2CCC[C@H]2C(N)=O)sc1-c1ccnc(C(C)(C)C(F)(F)F)c1 [Alpelisib] (partner 2 µM)
0.838

Tell us which relative viability value is on record for CN1CCN(CCOc2cc(OC3CCOCC3)c3c(Nc4c(Cl)ccc5c4OCO5)ncnc3c2)CC1 [Saracatinib] + O=C(CCCCCCC(=O)Nc1ccccc1)NO [Vorinostat] (partner 1 µM)
0.647

Tell us which relative viability value is on record for CCNC(=O)c1noc(-c2cc(C(C)C)c(O)cc2O)c1-c1ccc(CN2CCOCC2)cc1 [Luminespib] + CC1(C)CCC(c2ccc(Cl)cc2)=C(CN2CCN(c3ccc(C(=O)NS(=O)(=O)c4ccc(N[C@H](CCN5CCOCC5)CSc5ccccc5)c(S(=O)(=O)C(F)(F)F)c4)cc3)CC2)C1 [Navitoclax] (partner 0.5 µM)
0.874

Tell us which relative viability value is on record for CCNC(=O)c1noc(-c2cc(C(C)C)c(O)cc2O)c1-c1ccc(CN2CCOCC2)cc1 [Luminespib] + Cc1nc(Nc2ncc(C(=O)Nc3c(C)cccc3Cl)s2)cc(N2CCN(CCO)CC2)n1 [Dasatinib] (partner 0.075 µM)
0.221

Tell us which relative viability value is on record for Cc1csc(=NC2CCCCC2)n1/N=C/c1ccc(O)c(O)c1O [MIM1] + N=C(N)NC(=N)NCCc1ccccc1 [Phenformin] (partner 250 µM)
0.512

* * *

Listed next: entries and their corresponding relative viability.
Test system: HCC-366
Test: relative viability (nuclei count vs DMSO), 5 days (fraction); higher = more cells survive
Conditions: first compound 0.2 µM
Respond with the number and no other words.

Tell us which relative viability value is on record for CN1CCN(CCOc2cc(OC3CCOCC3)c3c(Nc4c(Cl)ccc5c4OCO5)ncnc3c2)CC1 [Saracatinib] + O=C(CCCCCCC(=O)Nc1ccccc1)NO [Vorinostat] (partner 1 µM)
0.135

Tell us which relative viability value is on record for CCNC(=O)c1noc(-c2cc(C(C)C)c(O)cc2O)c1-c1ccc(CN2CCOCC2)cc1 [Luminespib] + CC(=O)Nc1cccc(-n2c(=O)n(C3CC3)c(=O)c3c(Nc4ccc(I)cc4F)n(C)c(=O)c(C)c32)c1 [Trametinib] (partner 0.02 µM)
0.0301

Tell us which relative viability value is on record for CCNC(=O)c1noc(-c2cc(C(C)C)c(O)cc2O)c1-c1ccc(CN2CCOCC2)cc1 [Luminespib] + Cc1nc(Nc2ncc(C(=O)Nc3c(C)cccc3Cl)s2)cc(N2CCN(CCO)CC2)n1 [Dasatinib] (partner 0.075 µM)
0.0393

Tell us which relative viability value is on record for Cc1csc(=NC2CCCCC2)n1/N=C/c1ccc(O)c(O)c1O [MIM1] + CS(=O)(=O)N1CCN(Cc2cc3nc(-c4cccc5[nH]ncc45)nc(N4CCOCC4)c3s2)CC1 [Pictilisib] (partner 1 µM)
0.166

***
Tell us which relative viability value is on record for CCNC(=O)c1noc(-c2cc(C(C)C)c(O)cc2O)c1-c1ccc(CN2CCOCC2)cc1 [Luminespib] + Cc1nc(NC(=O)N2CCC[C@H]2C(N)=O)sc1-c1ccnc(C(C)(C)C(F)(F)F)c1 [Alpelisib] (partner 2 µM)
0.0182

* * *

System: NCI-H1666
Test: relative viability (nuclei count vs DMSO), 5 days (fraction); higher = more cells survive
Conditions: first compound 2.53 µM
Classify: TRUE when relative viability is strictly less than 0.8; FALSE when relative viability is not.

Strictly below 0.8 in relative viability? Nc1cccc2c1CN(C1CCC(=O)NC1=O)C2=O (configuration not stated) [Lenalidomide] + Cc1nc(Nc2ncc(C(=O)Nc3c(C)cccc3Cl)s2)cc(N2CCN(CCO)CC2)n1 [Dasatinib] (partner 0.075 µM)
FALSE

Strictly below 0.8 in relative viability? Nc1cccc2c1CN(C1CCC(=O)NC1=O)C2=O (configuration not stated) [Lenalidomide] + CCNC(=O)c1noc(-c2cc(C(C)C)c(O)cc2O)c1-c1ccc(CN2CCOCC2)cc1 [Luminespib] (partner 0.01 µM)
FALSE

Strictly below 0.8 in relative viability? Nc1cccc2c1CN(C1CCC(=O)NC1=O)C2=O (configuration not stated) [Lenalidomide] + CC1(C)CCC(c2ccc(Cl)cc2)=C(CN2CCN(c3ccc(C(=O)NS(=O)(=O)c4ccc(N[C@H](CCN5CCOCC5)CSc5ccccc5)c(S(=O)(=O)C(F)(F)F)c4)cc3)CC2)C1 [Navitoclax] (partner 0.5 µM)
FALSE

Strictly below 0.8 in relative viability? Nc1cccc2c1CN(C1CCC(=O)NC1=O)C2=O (configuration not stated) [Lenalidomide] + Cc1cc(Nc2cc(N3CCN(C)CC3)nc(Sc3ccc(NC(=O)C4CC4)cc3)n2)n[nH]1 [Tozasertib] (partner 0.1 µM)
TRUE

Strictly below 0.8 in relative viability? Nc1cccc2c1CN(C1CCC(=O)NC1=O)C2=O (configuration not stated) [Lenalidomide] + CS(=O)(=O)N1CCN(Cc2cc3nc(-c4cccc5[nH]ncc45)nc(N4CCOCC4)c3s2)CC1 [Pictilisib] (partner 1 µM)
TRUE

Strictly below 0.8 in relative viability? Nc1cccc2c1CN(C1CCC(=O)NC1=O)C2=O (configuration not stated) [Lenalidomide] + Cc1nc(NC(=O)N2CCC[C@H]2C(N)=O)sc1-c1ccnc(C(C)(C)C(F)(F)F)c1 [Alpelisib] (partner 2 µM)
FALSE

Strictly below 0.8 in relative viability? Nc1cccc2c1CN(C1CCC(=O)NC1=O)C2=O (configuration not stated) [Lenalidomide] + O=C(c1cc(Cc2n[nH]c(=O)c3ccccc23)ccc1F)N1CCN(C(=O)C2CC2)CC1 [Olaparib] (partner 8 µM)
TRUE
